// provenance: patent US20240294623A1

Target: T1, hLTBP1-proTGFβ1 (human, UniProt Q14766 347-1721; P01137 30-390, limits assumed)
T1 construct: Large latent complex (LLC): proTGFβ1 dimer disulfide-linked to one presenting molecule; recombinant, purified, biotinylated in BLI/SPR; The same id is used for the complex made by transfected cells in the reporter assays; also called human LTBP1-proTGFβ1 complex; LTBP1-ProTGFb1
T1 sequence (Q14766 347-1721 limits assumed, chain 1 of 2): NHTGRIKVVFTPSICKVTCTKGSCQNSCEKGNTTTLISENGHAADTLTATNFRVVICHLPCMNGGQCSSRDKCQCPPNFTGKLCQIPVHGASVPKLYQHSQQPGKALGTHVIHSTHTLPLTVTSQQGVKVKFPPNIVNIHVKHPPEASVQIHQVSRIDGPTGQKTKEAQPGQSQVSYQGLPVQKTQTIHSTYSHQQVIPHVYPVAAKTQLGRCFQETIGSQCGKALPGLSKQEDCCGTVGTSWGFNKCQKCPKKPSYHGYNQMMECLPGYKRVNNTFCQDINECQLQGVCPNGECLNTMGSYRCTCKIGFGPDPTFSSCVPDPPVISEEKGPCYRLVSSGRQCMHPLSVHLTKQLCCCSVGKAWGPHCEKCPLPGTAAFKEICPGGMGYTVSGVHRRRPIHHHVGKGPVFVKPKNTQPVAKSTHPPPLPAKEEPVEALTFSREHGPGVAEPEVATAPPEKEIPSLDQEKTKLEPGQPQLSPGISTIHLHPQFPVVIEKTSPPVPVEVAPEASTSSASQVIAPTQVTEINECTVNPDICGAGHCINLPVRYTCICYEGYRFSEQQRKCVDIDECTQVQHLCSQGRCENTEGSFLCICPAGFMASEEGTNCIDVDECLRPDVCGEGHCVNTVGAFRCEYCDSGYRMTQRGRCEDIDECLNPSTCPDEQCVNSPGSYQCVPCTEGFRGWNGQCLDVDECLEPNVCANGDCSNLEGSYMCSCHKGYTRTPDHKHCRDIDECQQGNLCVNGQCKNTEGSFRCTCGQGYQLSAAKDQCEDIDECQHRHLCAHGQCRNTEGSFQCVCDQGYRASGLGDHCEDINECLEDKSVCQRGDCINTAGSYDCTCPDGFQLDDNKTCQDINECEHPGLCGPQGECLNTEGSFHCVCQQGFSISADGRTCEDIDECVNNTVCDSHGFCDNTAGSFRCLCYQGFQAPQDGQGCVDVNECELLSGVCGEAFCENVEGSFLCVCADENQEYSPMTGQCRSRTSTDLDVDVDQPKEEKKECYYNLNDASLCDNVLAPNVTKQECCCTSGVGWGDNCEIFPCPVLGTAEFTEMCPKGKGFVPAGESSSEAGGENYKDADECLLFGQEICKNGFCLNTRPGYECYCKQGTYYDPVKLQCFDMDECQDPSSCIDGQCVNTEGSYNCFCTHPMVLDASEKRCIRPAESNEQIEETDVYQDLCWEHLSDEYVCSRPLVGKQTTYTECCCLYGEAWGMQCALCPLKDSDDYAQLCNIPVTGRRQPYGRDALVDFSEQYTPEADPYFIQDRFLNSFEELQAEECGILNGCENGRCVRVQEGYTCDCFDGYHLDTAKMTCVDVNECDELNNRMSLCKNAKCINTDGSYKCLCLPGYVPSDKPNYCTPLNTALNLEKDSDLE
T1 sequence (P01137 30-390 limits assumed, chain 2 of 2): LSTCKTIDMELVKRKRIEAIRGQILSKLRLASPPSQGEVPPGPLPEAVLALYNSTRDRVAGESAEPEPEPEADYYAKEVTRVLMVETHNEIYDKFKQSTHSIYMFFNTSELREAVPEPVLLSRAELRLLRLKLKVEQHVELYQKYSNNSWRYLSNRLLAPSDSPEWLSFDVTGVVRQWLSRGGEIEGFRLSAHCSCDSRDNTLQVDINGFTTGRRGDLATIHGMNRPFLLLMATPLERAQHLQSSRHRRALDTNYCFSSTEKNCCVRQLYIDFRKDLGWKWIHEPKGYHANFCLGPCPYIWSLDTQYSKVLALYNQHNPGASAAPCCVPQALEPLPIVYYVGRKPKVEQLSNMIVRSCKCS
Protocol Summary: BLI (Octet)
Observed Property: Kd (pM)

1) Ab22 (antibody, V domains shown) VH: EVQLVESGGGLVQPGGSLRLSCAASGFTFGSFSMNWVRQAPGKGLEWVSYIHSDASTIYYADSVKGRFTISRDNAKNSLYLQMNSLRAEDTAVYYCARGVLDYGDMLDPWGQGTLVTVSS VL: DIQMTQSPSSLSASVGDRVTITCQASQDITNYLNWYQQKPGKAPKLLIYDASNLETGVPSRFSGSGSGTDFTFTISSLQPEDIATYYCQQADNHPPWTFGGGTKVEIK; 318
2) Ab33 (antibody, V domains shown) VH: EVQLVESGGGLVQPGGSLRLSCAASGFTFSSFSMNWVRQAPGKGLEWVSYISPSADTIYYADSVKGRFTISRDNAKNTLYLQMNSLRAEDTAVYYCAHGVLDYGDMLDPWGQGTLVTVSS VL: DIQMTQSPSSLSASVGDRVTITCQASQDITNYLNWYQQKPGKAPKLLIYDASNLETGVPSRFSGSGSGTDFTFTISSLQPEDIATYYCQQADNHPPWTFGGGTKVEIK; 179
3) Ab26 (antibody, V domains shown) VH: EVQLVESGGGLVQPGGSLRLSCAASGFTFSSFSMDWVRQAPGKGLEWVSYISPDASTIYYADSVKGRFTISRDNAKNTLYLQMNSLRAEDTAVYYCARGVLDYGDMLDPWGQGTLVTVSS VL: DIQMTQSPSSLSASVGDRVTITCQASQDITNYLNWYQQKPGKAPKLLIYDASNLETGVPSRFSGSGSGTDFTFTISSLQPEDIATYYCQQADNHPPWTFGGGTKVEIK; 221
